experimentalSystem: UniProt Q99572
Sequence (Q99572 whole entry): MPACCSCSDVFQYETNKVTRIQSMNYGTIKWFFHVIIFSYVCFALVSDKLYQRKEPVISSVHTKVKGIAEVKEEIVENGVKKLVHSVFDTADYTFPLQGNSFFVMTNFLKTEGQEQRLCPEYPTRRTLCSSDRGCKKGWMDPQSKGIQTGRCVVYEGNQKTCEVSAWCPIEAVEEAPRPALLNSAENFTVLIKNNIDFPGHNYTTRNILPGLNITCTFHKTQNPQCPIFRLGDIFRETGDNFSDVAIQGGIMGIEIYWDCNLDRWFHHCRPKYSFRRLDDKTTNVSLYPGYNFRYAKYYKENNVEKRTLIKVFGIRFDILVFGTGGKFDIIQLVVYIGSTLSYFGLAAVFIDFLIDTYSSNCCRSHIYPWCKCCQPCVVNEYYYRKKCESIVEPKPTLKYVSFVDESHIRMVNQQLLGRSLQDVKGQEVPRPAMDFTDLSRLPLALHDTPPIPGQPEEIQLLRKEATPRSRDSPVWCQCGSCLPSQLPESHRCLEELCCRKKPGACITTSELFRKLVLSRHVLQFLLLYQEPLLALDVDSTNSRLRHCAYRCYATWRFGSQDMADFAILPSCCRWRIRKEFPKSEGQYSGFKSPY
testProtocol: Antagonist activity at human P2X7 receptor
pIC50: −log10 of the molar value.
Assign pIC50 to each entry below.

## Input What value of measured pIC50 is listed for Cc1c(Cl)cccc1Nc1nc(=O)cc2n1C(c1ccccc1)COC2 (stereo not drawn) ?
## Output 8.74

## Input Next up: COc1ccc(Nc2nc(=O)c3nn(C)cc3n2Cc2cc(F)c(F)c(F)c2)c(C)c1
## Output > 8.00

## Input One more compound: COc1ccc(Nc2nc(=O)cc3n2C(c2ccccc2)CN3C)c(C)c1 (stereo not drawn)
## Output > 8.00
